Taken from paper PMC9884962.

IC50 at 48 h overview
Assay: MTT cytotoxicity assay, L-02
Assay type: cell-based
Conditions: human, L-02 normal liver cells, 48 h exposure, normal cell line, read-out: Cytotoxic activity IC50, L-02
Express your answer in µM, writing the number without its unit.

INSERT INTO measurements (compound, measurement) VALUES
  ('Nc1cc2nc3cc(CO)ccc3oc-2cc1=O [Compound 1]', 72);

Please examine the following record next.
According to the records, this compound CC[C@H]1OC(=O)[C@H](C)[C@@H](O[C@H]2C[C@@](C)(OC)[C@@H](O)[C@H](C)O2)[C@H](C)[C@@H](O[C@@H]2O[C@H](C)C[C@H](N(C)C)[C@H]2O)[C@](C)(O)C[C@@H](C)CN(C)[C@H](C)[C@@H](O)[C@]1(C)O [Azithromycin, azithromycin, reference compound] displays IC50 at 48 h of 7.34

====

System: human gastric cancer cell line (MGC-803)
Experiment: MTT cytotoxicity assay, MGC-803
Format: cell-based
Settings: 48 h exposure, read-out: Cytotoxic activity IC50, MGC-803
QUANTITY NAME: pIC50
Quick note: pIC50 values are minus log10 of concentrations in mol/L.

Illustrative cases are given below, each with its answer.
INSERT INTO results (compound, quantity_name, measurement) VALUES
  ('Nc1cc2nc3cc(CO)ccc3oc-2cc1=O', 'pIC50', 4.30),
  ('CC[C@H]1OC(=O)[C@H](C)[C@@H](O[C@H]2C[C@@](C)(OC)[C@@H](O)[C@H](C)O2)[C@H](C)[C@@H](O[C@@H]2O[C@H](C)C[C@H](N(C)C)[C@H]2O)[C@](C)(O)C[C@@H](C)CN(C)[C@H](C)[C@@H](O)[C@]1(C)O [Azithromycin, azithromycin, reference compound]', 'pIC50', 5.80);

Please examine the following record next.
Query CC(=O)OCc1ccc2oc3cc(=O)c(N)cc-3nc2c1 on human gastric cancer cell line (MGC-803); pIC50 returned: 4.16

====

Tested on: human breast cancer cell line (MDA-MB231)
Experiment: MTT cytotoxicity assay, MDA-231
Format: cell-based
Settings: MDA-MB-231, 48 h exposure, read-out: Cytotoxic activity IC50, MDA-231
QUANTITY NAME: pIC50
Quick note: pIC50 values are minus log10 of concentrations in mol/L.

INSERT INTO results (compound, measurement) VALUES
  ('Nc1cc2nc3cc(CO)ccc3oc-2cc1=O', 4.25);

According to the records, this compound CC[C@H]1OC(=O)[C@H](C)[C@@H](O[C@H]2C[C@@](C)(OC)[C@@H](O)[C@H](C)O2)[C@H](C)[C@@H](O[C@@H]2O[C@H](C)C[C@H](N(C)C)[C@H]2O)[C@](C)(O)C[C@@H](C)CN(C)[C@H](C)[C@@H](O)[C@]1(C)O [Azithromycin, azithromycin, reference compound] displays pIC50 of 5.39

====

Experiment: MTT cytotoxicity assay, L-02
Format: cell-based
Conditions: human, L-02 normal liver cells, 48 h exposure, normal cell line, read-out: Cytotoxic activity IC50, L-02
IC50 at 48 h overview

INSERT INTO results (compound, measurement) VALUES
  ('CC(=O)OCc1ccc2oc3cc(=O)c(NC4OC(CO)C(O)C(O)C4O)cc-3nc2c1 (stereo not drawn) [Compound 4, exfoliazoneglycoside]', '> 100 µM'),
  ('CC(=O)OCc1ccc2oc3cc(=O)c(N)cc-3nc2c1', '> 100 µM');

Please examine the following record next.
According to the records, this compound CC(=O)Nc1cc(CNc2cc3nc4cc(CO)ccc4oc-3cc2=O)ccc1O displays IC50 at 48 h of > 100 µM

====

pIC50 overview
Tested on: human breast cancer cell line (MDA-MB231)
Experiment: MTT cytotoxicity assay, MDA-231
Format: cell-based
Conditions: MDA-MB-231, 48 h exposure, read-out: Cytotoxic activity IC50, MDA-231
pIC50: −log10 of the molar value.

INSERT INTO results (compound, study_system, quantity_name, measurement) VALUES
  ('CC(=O)OCc1ccc2oc3cc(=O)c(NC4OC(CO)C(O)C(O)C4O)cc-3nc2c1 (stereo not drawn) [Compound 4, exfoliazoneglycoside]', 'human breast cancer cell line (MDA-MB231)', 'pIC50', '< 4.00'),
  ('CC(=O)OCc1ccc2oc3cc(=O)c(N)cc-3nc2c1', 'human breast cancer cell line (MDA-MB231)', 'pIC50', '< 4.00');

Please examine the following record next.
Query CC(=O)Nc1cc(CNc2cc3nc4cc(CO)ccc4oc-3cc2=O)ccc1O on human breast cancer cell line (MDA-MB231); pIC50 returned: < 4.00
